- experimental-target: BRD4 bromodomain domain I [BRD4(1)] (Homo sapiens)
- Construct: BRD4 bromodomain domain I [BRD4(1)]; purchased Cayman Chemicals
- procedure-text: BRD4 bromodomain domain 1 inhibition assay (TR-FRET)
- Assay type: binding
- cond: screening concentration 10 μM
- Experimental: The inhibitory activity of test compounds on the bromodomain, BRD4 bromodomain domain I [BRD4(1)], were determined via TR-FRET after a slight modification of the manufacturer's protocol (Cayman Chemicals, Ann Arbor, Mich.). Briefly, compounds were diluted to a 20× ([…]) concentration in DMSO. […] The fluorescence was read in a time-resolved format on the Biotec Synergy 2 plate reader by exciting the signal at 340 nm and reading emissions at 620 and 670, using a 100 μs delay and 200 μs read window. […]
measurement-type: inhibition at 10 µM

[[record]]
compound = "CCOc1cc(C(=O)NC2CC2)ccc1Nc1cc2c(cn1)N(C)C(=O)c1ccccc1N2C"
result = "< 70%"

[[record]]
compound = "C=CCN1CCN(C(=O)c2ccc(Nc3cc4c(cn3)N(C)C(=O)c3ccccc3N4C)c(OCC)c2)CC1"
result = "70 to 85%"

[[record]]
compound = "CCOc1cc(C(=O)N2CCC(F)C2)ccc1Nc1cc2c(cn1)N(C)C(=O)c1occc1N2C (centres unmarked)"
result = "70 to 85%"

[[record]]
compound = "CCOc1cc(C(=O)N2CCN(CCOCCO)CC2)ccc1Nc1cc2c(cn1)N(C)C(=O)c1ccccc1N2C"
result = "> 85%"

[[record]]
compound = "CCOc1cc(C(=O)N2CCN(CCN3CCOCC3)CC2)ccc1Nc1cc2c(cn1)N(C)C(=O)c1ccccc1N2C"
result = "> 85%"

[[record]]
compound = "CCOc1cc(C(=O)N2CCN[C@H](C)C2)ccc1Nc1cc2c(cn1)N(C)C(=O)c1ccccc1N2C"
result = "> 85%"

[[record]]
compound = "CCOc1cc(C(=O)N2CCC(CN3CCOCC3)CC2)ccc1Nc1cc2c(cn1)N(C)C(=O)c1ccccc1N2C"
result = "> 85%"

[[record]]
compound = "CCOc1cc(C(=O)N2CCCC(O)C2)ccc1Nc1cc2c(cn1)N(C)C(=O)c1ccccc1N2C (centres unmarked)"
result = "> 85%"

[[record]]
compound = "CCOc1cc(C(=O)N[C@H]2CCCOC2)ccc1Nc1cc2c(cn1)N(C)C(=O)c1ccccc1N2C"
result = "70 to 85%"

[[record]]
compound = "CCOc1cc(C(=O)N2CC[C@@H](N(C)C)C2)ccc1Nc1cc2c(cn1)N(C)C(=O)c1occc1N2C"
result = "> 85%"

[[record]]
compound = "CN1C(=O)c2ccccc2N(C)c2cc(N[C@H]3CC[C@H](N4CCCC4)CC3)ncc21"
result = "< 70%"

[[record]]
compound = "CCOc1cc(C(=O)N2CCC(O)CC2)ccc1Nc1cc2c(cn1)N(C)C(=O)c1ccccc1N2C"
result = "70 to 85%"

[[record]]
compound = "CCOc1cc(C(=O)N2CC[C@H](N(C)C)C2)ccc1Nc1cc2c(cn1)N(C)C(=O)c1ccccc1N2C"
result = "> 85%"

[[record]]
compound = "CCOc1cc(C(=O)N2CCC(NC)C2)ccc1Nc1cc2c(cn1)N(C)C(=O)c1occc1N2C (centres unmarked)"
result = "> 85%"


* * *

- experimental-target: recombinant human ERK5 catalytic domain (Homo sapiens, UniProt Q13164)
- Construct: Recombinant human ERK5 catalytic domain radiometric assays; purchased Reaction Biology, Corp (Malvern, Pa.), which ran the assay as a service
- Sequence (Q13164 55-347 limits assumed): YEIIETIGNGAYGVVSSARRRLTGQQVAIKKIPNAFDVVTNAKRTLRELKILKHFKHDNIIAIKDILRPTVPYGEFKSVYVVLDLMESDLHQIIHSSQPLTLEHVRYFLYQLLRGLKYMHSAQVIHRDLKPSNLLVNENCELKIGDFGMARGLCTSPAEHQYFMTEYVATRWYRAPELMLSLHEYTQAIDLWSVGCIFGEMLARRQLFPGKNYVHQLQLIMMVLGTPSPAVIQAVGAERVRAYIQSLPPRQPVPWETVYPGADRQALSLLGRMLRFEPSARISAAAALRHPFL
- procedure-text: Recombinant human ERK5 radiometric (HotSpot) assay
- Type: biochemical
- cond: 10 μM ATP, 20 μM myelin basic protein substrate; read-out: rhERK5 IC50
measurement-type: IC50

[[record]]
compound = "CCOc1cc(C(=O)N2CCN(C3CCN(C)CC3)CC2)ccc1Nc1cc2c(cn1)N(C)C(=O)c1cccc(OC)c1O2 [Compound T105]"
result = "0.05 to 0.2 µM"

[[record]]
compound = "CCOc1cc(C(=O)N2CCN(c3ccccn3)CC2)ccc1Nc1cc2c(cn1)N(C)C(=O)c1ccccc1N2C [Compound T35]"
result = "0.02 to 0.05 µM"

[[record]]
compound = "CCOc1cc(C(=O)N2CCN(C3CCN(C)CC3)CC2)ccc1Nc1cc2c(cn1)N(C)C(=O)c1cccc(Cl)c1O2 [Compound T104]"
result = "0.05 to 0.2 µM"

[[record]]
compound = "COc1cccc2c1Oc1cc(N[C@H]3CC[C@H](O)CC3)ncc1N(C)C2=O [Compound T95]"
result = "> 0.2 µM"

[[record]]
compound = "CN1C(=O)c2ccccc2N(C)c2cc(N[C@H]3CC[C@@H](O)CC3)ncc21 [Compound T114]"
result = "> 0.2 µM"

[[record]]
compound = "CCOc1cc(C(=O)N2CCC(N3CCN[C@@H](C)C3)CC2)ccc1Nc1cc2c(cn1)N(C)C(=O)c1ccccc1N2C [Compound T52]"
result = "0.02 to 0.05 µM"

[[record]]
compound = "CCOc1cc(C(=O)N2CCN(C3CCN(C)CC3)CC2)ccc1Nc1cc2c(cn1)N(C)C(=O)c1cccc(Cl)c1N2C [Compound T126]"
result = "0.05 to 0.2 µM"

[[record]]
compound = "CCOc1cc(C(=O)N2CCN(CCN3CCOCC3)CC2)ccc1Nc1cc2c(cn1)N(C)C(=O)c1ccccc1N2C [Compound T15]"
result = "0.02 to 0.05 µM"

[[record]]
compound = "CCOc1cc(C(=O)N[C@H]2CC[C@H](O)CC2)ccc1Nc1cc2c(cn1)N(C)C(=O)c1ccccc1N2C [Compound T62]"
result = "> 0.2 µM"

[[record]]
compound = "CCOc1cc(C(=O)N2CCN(CCN(C)C)CC2)ccc1Nc1cc2c(cn1)N(C)C(=O)c1ccccc1N2C [Compound T14]"
result = "0.02 to 0.05 µM"

[[record]]
compound = "CCOc1cc(C(=O)N2CCC(N(C)CCO)CC2)ccc1Nc1cc2c(cn1)N(C)C(=O)c1ccccc1N2C [Compound T38]"
result = "0.02 to 0.05 µM"

[[record]]
compound = "CCOc1cc(C(=O)N2CCN(C3CCN(C)CC3)CC2)ccc1Nc1cc2c(cn1)N(C)C(=O)c1cccc(F)c1N2C [Compound T125]"
result = "0.05 to 0.2 µM"

[[record]]
compound = "CCOc1cc(C(=O)N2CCN(C3CCN(C)CC3)CC2)ccc1Nc1cc2c(cn1)N(C)C(=O)c1cccc(C)c1O2 [Compound T106]"
result = "0.05 to 0.2 µM"

[[record]]
compound = "CCOc1cc(C(=O)N2CCC(NCCF)C2)ccc1Nc1cc2c(cn1)N(C)C(C(F)(F)F)c1ccccc1N2C (centres unmarked) [Compound T54]"
result = "> 0.2 µM"


* * *

Measured Kd, listed per entry for reference.
- experimental-target: BRD4 (Homo sapiens)
- Construct: read out by qPCR of the phage DNA
- procedure-text: Bromodomain binding assay: BRD4
measurement-type: Kd

[[record]]
compound = "CCOc1cc(C(=O)N[C@H]2CC[C@H](O)CC2)ccc1Nc1cc2c(cn1)N(C)C(=O)c1ccccc1N2C [Compound T62]"
experimental_target = "BRD4 (Homo sapiens)"
measurement_type = "Kd"
result = "97 nM"

[[record]]
compound = "CCOc1cc(C(=O)N2CCC(N3CCCC3)CC2)ccc1Nc1cc2c(cn1)N(C)C(=O)c1ccccc1N2C [Compound 46]"
experimental_target = "BRD4 (Homo sapiens)"
measurement_type = "Kd"
result = "41 nM"


* * *

- Tested on: human CD4+ T cells
- procedure-text: Cytokines produced by human CD4+ T cells stimulated with PMA/ionomycin
- Assay type: cell-based
- cond: 10 μM compound, PMA/ionomycin 20 h, read-out: Percent inhibition of GM-CSF (relative to DMSO control)
measurement-type: inhibition at 10 µM (%)

[[record]]
substance_smiles = "CCOc1cc(C(=O)N2CCC(N3CCN(C)CC3)CC2)ccc1Nc1cc2c(cn1)N(C)C(=O)c1ccccc1N2C"
experimental_target = "human CD4+ T cells"
measurement_type = "inhibition at 10 µM"
reading_unit = "%"
numeric_value = 96.6

[[record]]
substance_smiles = "CCOc1cc(C(=O)N2CCC(N3CCN(C)CC3)CC2)ccc1Nc1cc2c(cn1)N(C)C(=O)c1occc1N2C"
experimental_target = "human CD4+ T cells"
measurement_type = "inhibition at 10 µM"
reading_unit = "%"
numeric_value = 89.5

[[record]]
substance_smiles = "CCOc1cc(C(=O)N2CCNCC2)ccc1Nc1cc2c(cn1)N(C)C(=O)c1ccccc1N2C"
experimental_target = "human CD4+ T cells"
measurement_type = "inhibition at 10 µM"
reading_unit = "%"
numeric_value = 95.4

[[record]]
substance_smiles = "CCOc1cc(C(=O)NCC2CC2)ccc1Nc1cc2c(cn1)N(C)C(=O)c1ccccc1N2C"
experimental_target = "human CD4+ T cells"
measurement_type = "inhibition at 10 µM"
reading_unit = "%"
numeric_value = 95.9

[[record]]
substance_smiles = "CCOc1cc(C(=O)N2CCC(N3CCCC3)CC2)ccc1Nc1cc2c(cn1)N(C)C(=O)c1ccccc1N2C"
experimental_target = "human CD4+ T cells"
measurement_type = "inhibition at 10 µM"
reading_unit = "%"
numeric_value = 96.7

